Measurement record for Dihydrofolate reductase (Escherichia coli); quantity recorded: Log 1/Ki app.
Write no unit; give the number alone.

Quick check: Log 1/Ki app of Nc1ncc(Cc2ccc(OCc3ccccc3)cc2)c(N)n1 ?
8.7

Quick check: Log 1/Ki app of CC(=O)Nc1ccc(Cc2cnc(N)nc2N)cc1[N+](=O)[O-] ?
6.97

Quick check: Log 1/Ki app of COc1cc(Cc2cnc(N)nc2N)ccc1O ?
9.05

Quick check: Log 1/Ki app of CS(=O)(=O)Oc1cccc(Cc2cnc(N)nc2N)c1 ?
6.92

Quick check: Log 1/Ki app of COCCOc1cc(Cc2cnc(N)nc2N)ccc1OC ?
8.74

Quick check: Log 1/Ki app of COc1ccc(Cc2cnc(N)nc2N)cc1OS(C)(=O)=O ?
8.96

---

# ASSAY_SYSTEM: Dihydrofolate reductase (Escherichia coli) (UniProt P0ABQ4)
# Sequence (P0ABQ4 whole entry): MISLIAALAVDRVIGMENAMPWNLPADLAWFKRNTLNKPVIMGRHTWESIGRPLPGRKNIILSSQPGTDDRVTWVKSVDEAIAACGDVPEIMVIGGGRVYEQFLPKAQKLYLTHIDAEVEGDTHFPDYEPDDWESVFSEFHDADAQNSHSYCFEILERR
If the reported Log 1/Ki app equals or exceeds 8, assign Y. If not, assign N.

Could you verify whether the entry Nc1ncc(Cc2ccc([N+](=O)[O-])cc2)c(N)n1 shows Log 1/Ki app of no less than 8?
N

Could you verify whether the entry COCCOc1ccc(Cc2cnc(N)nc2N)cc1OC shows Log 1/Ki app of no less than 8?
Y

Could you verify whether the entry CCCOc1cc(Cc2cnc(N)nc2N)cc(OCCC)c1 shows Log 1/Ki app of no less than 8?
Y

Could you verify whether the entry CCOc1cc(Cc2cnc(N)nc2N)cc(OCC)c1 shows Log 1/Ki app of no less than 8?
Y

Could you verify whether the entry CCCOc1cc(Cc2cnc(N)nc2N)cc(OCC)c1 shows Log 1/Ki app of no less than 8?
Y

Could you verify whether the entry Nc1ncc(Cc2cc(OCc3ccccc3)cc(OCc3ccccc3)c2)c(N)n1 shows Log 1/Ki app of no less than 8?
Y

Could you verify whether the entry COc1ccc(Cc2cnc(N)nc2N)cc1C(F)(F)F shows Log 1/Ki app of no less than 8?
N

Could you verify whether the entry CCCOc1cc(Cc2cnc(N)nc2N)cc(Br)c1OC shows Log 1/Ki app of no less than 8?
Y

Could you verify whether the entry Nc1ncc(Cc2ccc(OC(F)(F)F)cc2)c(N)n1 shows Log 1/Ki app of no less than 8?
N

Could you verify whether the entry COc1ccc(Cc2cnc(N)nc2N)cc1OCc1ccccc1 shows Log 1/Ki app of no less than 8?
Y

Could you verify whether the entry COc1cc(Cc2cnc(N)nc2N)ccc1OCc1ccccc1 shows Log 1/Ki app of no less than 8?
Y

Could you verify whether the entry CCCCOc1ccc(Cc2cnc(N)nc2N)cc1OC shows Log 1/Ki app of no less than 8?
Y

Could you verify whether the entry CCCCOc1cc(Cc2cnc(N)nc2N)cc(Br)c1OC shows Log 1/Ki app of no less than 8?
Y
